Listed here: items and their measured GI50.
System: CCRF-CEM
procedure-details: NCI tumour cell line growth inhibition, 48 h
Active and inactive are the calls of the source. Rule as the data show it: active = GI50 up to about 1.1 µM and inactive = higher.

Solved cases below.
CCOC(=O)[C@@H]1CCN2CN(c3ccc(OC)cc3)N=C(c3ccccc3)[C@@]12c1ccccc1	23.7 µM (inactive)
CCCCc1ccc(Nc2nc(Cl)c3c(ncn3C3CC(Oc4ccc(C)cc4)C(COc4ccc(C)cc4)O3)n2)cc1 (centres undefined)	> 100 µM (inactive)
O=C(CCN1CCC(CCO)CC1)Nc1ccc2c(c1)C(=O)c1ccc(NC(=O)CCN3CCC(CCO)CC3)cc1C2=O	4.22 µM (inactive)
COc1ccc(-c2nnc(CCCCCCCCc3nnc(-c4ccc(OC)cc4)n3N)n2N)cc1	> 100 µM (inactive)
OCC(O)C(OC1OC(CO)C(O)C(O)C1O)c1nn(-c2ccccc2)c2nc3cc(Cl)ccc3nc12 (centres undefined)	> 100 µM (inactive)

Name the reported GI50 value associated with the compound CC(c1ccccc1)n1cncc1C(=O)NN1CCN(C)CC1 (centres undefined)
> 10 µM (inactive)

Name the reported GI50 value associated with the compound O=[N+]([O-])c1ccccc1S(=O)(=O)c1cccc2c1NCCC2
28 µM (inactive)

Name the reported GI50 value associated with the compound COc1ccc(/C=C/C(=O)c2sc(-n3nc(-c4ccccc4)cc3-c3ccccc3)nc2C)cc1
> 10 µM (inactive)

Name the reported GI50 value associated with the compound CCOC(=O)c1ccc(NC(=O)Oc2ccc3c(C)cc(=O)oc3c2)cc1
22.6 µM (inactive)

###

System: HT-29
procedure-details: NCI tumour cell line growth inhibition, 48 h
Active and inactive are the calls of the source. Rule as the data show it: active = GI50 up to about 1.1 µM and inactive = higher.
measured-quantity: GI50

Solved cases below.
COCOCCCCCO[Si](C)(C)C(C)(C)C	14.4 µM (inactive)
[O-][S+]1CSCS1 (stereo unspecified)	> 100 µM (inactive)
O=C(O/N=C1/CCC/C1=C\c1ccccc1)c1ccc(Cl)c(Cl)c1	> 100 µM (inactive)

Checklist item: GI50 tested on HT-29, entry COC(=O)c1ccc(C)cc1CC1Cc2ccc(C)cc2C1=O (stereo unspecified) , value?
3.47 µM (inactive)

Checklist item: GI50 tested on HT-29, entry CC(=O)Nc1ccc(/C=C/C(=O)c2sc(C(N)=S)nc2C)cc1 , value?
> 100 µM (inactive)

Checklist item: GI50 tested on HT-29, entry CCCS(=O)OC1C(C2COC(C)(C)O2)OC2OC(C)(C)OC21 (stereo unspecified) , value?
3.89 µM (inactive)

Checklist item: GI50 tested on HT-29, entry O=C1CC2CCC(C1)[S+]2[O-] (stereo unspecified) , value?
> 100 µM (inactive)

Checklist item: GI50 tested on HT-29, entry Cc1ccc(S(=O)(=O)N(CC(=O)O)c2ccccc2)cc1 , value?
> 100 µM (inactive)

Checklist item: GI50 tested on HT-29, entry CCOP(=O)(OCC)C(C(=O)OC)C(=O)C(=O)Nc1cccc(O)c1 (stereo unspecified) , value?
> 100 µM (inactive)

Checklist item: GI50 tested on HT-29, entry OCCN(C1=NCCN1)/[N+](=C/c1ccccc1O)[CH-]c1ccccc1O , value?
> 100 µM (inactive)

Checklist item: GI50 tested on HT-29, entry O=C(OC(/C=C/c1ccccc1)P1(=O)N(Cc2ccccc2)[C@@H]2CCCC[C@H]2N1Cc1ccccc1)c1ccccc1 (stereo partly specified) , value?
3.4 µM (inactive)

Data provenance is ChEMBL document CHEMBL1201862.
